viability at 10 µM values by entry
System: H1650 (Lung Adenocarcinoma)
procedureText: Cell viability analysis (WST-1), H1650
Format: cell-based
statedConditions: Homo sapiens, NCI-H1650, 72 h, Table 4, repeated experiments, drug 10 μM, WST-1, read-out: survival rate (viability) of cancer cells, H1650
Counter-ions that a name gives are not always drawn.
Enter your answer as a number in %; do not include the unit.

Below are worked cases with known answers.
>  <compound>
CC(C)N(CCC(C(N)=O)(c1ccccc1)c1ccccn1)C(C)C (stereo not drawn) [Disopyramide Phosphate]

>  <targetDesc>
H1650 (Lung Adenocarcinoma)

>  <viability at 10 µM (%)>
90.5

$$$$
>  <compound>
CC(C)n1c(/C=C/C(O)CC(O)CC(=O)O)c(-c2ccc(F)cc2)c2ccccc21 (stereo not drawn) [Fluvastatin sodium (Lescol), Fluvastatin sodium]

>  <targetDesc>
H1650 (Lung Adenocarcinoma)

>  <viability at 10 µM (%)>
73.1

$$$$
>  <compound>
CCCCc1nc(Cl)c(CO)n1Cc1ccc(-c2ccccc2-c2nn[nH]n2)cc1 [Losartan potassium]

>  <targetDesc>
H1650 (Lung Adenocarcinoma)

>  <viability at 10 µM (%)>
77.2

$$$$

**Query** // query viability at 10 µM value for entry CCC(C)(C)C(=O)O[C@H]1C[C@@H](C)C=C2C=C[C@H](C)[C@H](CC[C@@H]3C[C@@H](O)CC(=O)O3)[C@H]21 [Simvastatin (Zocor), Simvastatin]
**Result** 79.8

**Query** Now the same for COC(=O)C1=C(C)NC(C)=C(C(=O)OC2CCCN(Cc3ccccc3)C2)C1c1cccc([N+](=O)[O-])c1 (stereo not drawn) [Benidipine hydrochloride]
**Result** 64.5

**Query** Now the same for CCC[C@H](N[C@@H](C)C(=O)N1[C@H](C(=O)O)C[C@@H]2CCCC[C@@H]21)C(=O)OCC [Perindopril Erbumine (Aceon), Perindopril Erbumine]
**Result** 78.6
